The measurements presented in this section are drawn from ChEMBL document CHEMBL1148314.

biological target: Histamine H1 receptor (Cavia porcellus); experiment: Functional Histamine H1 receptor antagonistic activity in vitro assay on guinea pig ileum; format: tissue-based; conditions: read-out: pA2 (converted)
Sequence (P31389 whole entry): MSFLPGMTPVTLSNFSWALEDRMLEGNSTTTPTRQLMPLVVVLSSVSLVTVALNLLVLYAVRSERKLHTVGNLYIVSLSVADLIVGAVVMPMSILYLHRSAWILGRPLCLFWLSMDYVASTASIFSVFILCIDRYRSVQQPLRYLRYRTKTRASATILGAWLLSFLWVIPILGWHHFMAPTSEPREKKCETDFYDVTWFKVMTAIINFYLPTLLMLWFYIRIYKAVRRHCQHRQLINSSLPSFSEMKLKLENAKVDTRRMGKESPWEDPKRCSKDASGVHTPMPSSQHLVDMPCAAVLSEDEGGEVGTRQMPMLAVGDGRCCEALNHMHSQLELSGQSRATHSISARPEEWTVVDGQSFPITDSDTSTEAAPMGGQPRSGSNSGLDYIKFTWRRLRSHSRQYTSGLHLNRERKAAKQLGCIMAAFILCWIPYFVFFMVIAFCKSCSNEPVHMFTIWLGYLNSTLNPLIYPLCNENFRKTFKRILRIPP
value-kind: Kb

Here is how some compounds turned out for Kb.
CCCCCCCOCCCc1c[nH]cn1
> 100 µM
C=CCOCCCc1c[nH]cn1.O=C(O)C(=O)O
> 316 µM

Okay, now this compound:
Q: # input compound: CCCOCCCc1c[nH]cn1.O=C(O)C(=O)O ; wanted: its Kb
A: > 31.6 µM

====

Listed here: items and their measured ED50.
system: Mus musculus; experiment: Potency after oral administration in vivo in mice; format: functional

COCCCc1c[nH]cn1.O=C(O)C(=O)O
~10 mg/kg
CCCCOCCCc1c[nH]cn1.O=C(O)/C=C\C(=O)O
> 10 mg/kg
CC(C)(C)OCCc1c[nH]cn1.O=C(O)C(=O)O
> 10 mg/kg
CCCCCCCCOCCCc1c[nH]cn1.O=C(O)/C=C\C(=O)O
> 10 mg/kg
C=CCCCOCCCc1c[nH]cn1.O=C(O)C(=O)O
≥ 10 mg/kg
O=C(COCCCc1c[nH]cn1)c1ccccc1.O=C(O)/C=C\C(=O)O
> 10 mg/kg

Q: May I ask what ED50 has been recorded for c1ccc(C(OCCCc2cnc[nH]2)(c2ccccc2)c2ccccc2)cc1 ?
A: > 10 mg/kg

====

molecular target: Histamine H1 receptor (Cavia porcellus); assay: Functional Histamine H1 receptor antagonistic activity in vitro assay on guinea pig ileum; type: tissue-based; conditions: read-out: pA2 (converted)
Measured Kb by item

CC(C)(C)OCCCc1c[nH]cn1.O=C(O)/C=C\C(=O)O
> 100 µM
COCCCc1c[nH]cn1.O=C(O)C(=O)O
> 100 µM
CCOCCCc1c[nH]cn1.O=C(O)C(=O)O
> 100 µM

Q: Query: Kb; subject: C#CCOCCCc1c[nH]cn1.O=C(O)C(=O)O
A: > 316 µM
